Target: T1, Sul7s W17A (Sulfolobus islandicus Rey15A, UniProt F0NBY5 1-59, W17A)
T1 sequence: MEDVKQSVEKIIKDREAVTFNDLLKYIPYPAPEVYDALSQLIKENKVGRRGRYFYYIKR
Experiment: BLI; BLI: 50 mM Tris-Cl pH 7.5, 100 mM NaCl, 1 mM EDTA, 0.02% Tween-20, 30 C; NMR: 20 mM potassium phosphate pH 7.0, 30 mM NaCl, 0.02% NaN3, 298 K
Settings: protein: recombinant; tags: untagged; label: 5'-biotin
pKd: −log10 of the molar value.

{"columns": ["Binder", "pKd"],
 "data": [
  ["TTTCTACCCTTTGGTGCTAATGCCCATACT (ssDNA) [S30 (S30-F)]", 4.97]
]}

Just for reference, paper PMC8998557 is where these values come from.
